tested.on: T1, IL-1beta (UniProt P01584 117-269)
T1 construct: also called IL-1β
test.summary: Biacore
measure.name: binding result

- binder: "XPA23 Fab, heavy chain T28G (Fab, V domains shown) VH: EVQLLESGGGLVQPGGSLRLSCAASGFGFSKYFMFWVRQAPGKGLEWVSVISPSGGMTRYADSVKGRFTISRDNSKNTLYLQMNSLRAEDTAVYYCARVGYGGNSDYWGQGTLVTVSS VL: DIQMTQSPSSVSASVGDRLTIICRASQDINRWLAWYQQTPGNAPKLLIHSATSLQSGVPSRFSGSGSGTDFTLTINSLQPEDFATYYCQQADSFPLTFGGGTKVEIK"
  measure.name: "binding result"
  value.observed: "no binding"
- binder: "XPA23 Fab, heavy chain V99N (Fab, V domains shown) VH: EVQLLESGGGLVQPGGSLRLSCAASGFTFSKYFMFWVRQAPGKGLEWVSVISPSGGMTRYADSVKGRFTISRDNSKNTLYLQMNSLRAEDTAVYYCARNGYGGNSDYWGQGTLVTVSS VL: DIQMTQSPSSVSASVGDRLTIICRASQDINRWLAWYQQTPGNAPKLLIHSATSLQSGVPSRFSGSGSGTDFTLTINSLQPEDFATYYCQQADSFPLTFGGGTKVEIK"
  measure.name: "binding result"
  value.observed: "no binding"
